Data origin, for the record: patent US4232040A

- Target system: Aldose reductase (Oryctolagus cuniculus)
- Construct: Aldose reductase is isolated by homogenizing the lens in 3 volumes of water; from tissue; host or cells: lens of mature New Zealand rabbits
- Assay info: Aldose reductase inhibition in vitro (rabbit lens enzyme, glyceraldehyde substrate, loss of absorbance at 340 millimicrons)
- Assay type: biochemical, New Zealand rabbit
- Test context: 2 min; Table I; molar concentration of xanthone compound 1 × 10^-6; relative to non-inhibited control (0%)
Listed next: entries and their corresponding inhibition at 1 µM.
Report as a plain number; the unit % is understood.

Worked cases, inhibition at 1 µM given:
smiles_structure=CC(C)CN(C)S(=O)(=O)c1ccc2oc3ccc(C(=O)O)cc3c(=O)c2c1 numeric_readout=25
smiles_structure=CN(C)S(=O)(=O)c1ccc2oc3ccc(C(=O)N(CCO)CCO)cc3c(=O)c2c1 numeric_readout=29
smiles_structure=O=C(O)c1ccc2oc3ccc(S(=O)(=O)O)cc3c(=O)c2c1 numeric_readout=0

Reported inhibition at 1 µM (Aldose reductase (Oryctolagus cuniculus)) for entry "CN(C)S(=O)(=O)c1ccc2oc3ccc(C(=O)O)cc3c(=O)c2c1" is 67
